Each record here notes measured FKBP12 ligand efficiency (LE).
# study.target: FKBP12 (Homo sapiens)
# Sequence (P62942 whole entry): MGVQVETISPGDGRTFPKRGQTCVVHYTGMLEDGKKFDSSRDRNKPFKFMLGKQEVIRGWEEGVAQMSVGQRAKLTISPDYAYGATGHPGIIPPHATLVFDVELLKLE
# method: Competitive fluorescence polarization assay, binding to FKBP12
# condition.notes: LE=(ΔG)/N, ΔG=−RTlnKi, RT=0.6, N non-hydrogen atoms
The answer should be written as a number, with no unit following it.

compound: CCOC(=O)C1CCCCN1S(=O)(=O)c1ccc2[nH]c(=O)sc2c1 (stereo not shown) [Compound 3d, reference compound]
study.target: FKBP12 (Homo sapiens)
FKBP12 ligand efficiency (LE): 0.38
--
compound: COc1ccc(OCCN2CCC3CCCC(C2=O)N3S(=O)(=O)c2ccc3[nH]c(=O)sc3c2)cc1OC (stereo not shown) [Compound 5d]
study.target: FKBP12 (Homo sapiens)
FKBP12 ligand efficiency (LE): 0.34
--
compound: COc1ccc(OCCN2CC3CCCC(C2=O)N3S(=O)(=O)c2ccc3[nH]c(=O)sc3c2)cc1OC (stereo not shown) [Compound 4d]
study.target: FKBP12 (Homo sapiens)
FKBP12 ligand efficiency (LE): 0.28

Now look at this one.
Lookup: Which FKBP12 ligand efficiency (LE) is listed for COc1ccc(OCCN2CC3CCCC(C2=O)N3C(=O)C(=O)c2cc(OC)c(OC)c(OC)c2)cc1OC (stereo not shown) [Compound 4a, reference compound] ?
Found: 0.24

---

# study.target: FKBP52 (Homo sapiens, UniProt Q02790)
# Construct: 400 nM FKBP51FK1, 1600 nM FKBP52FK1
# Sequence (Q02790 50-138 limits assumed): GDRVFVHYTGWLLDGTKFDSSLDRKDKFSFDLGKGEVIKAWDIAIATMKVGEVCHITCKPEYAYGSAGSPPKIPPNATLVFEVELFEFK
# method: Competitive fluorescence polarization assay, binding to FKBP52
# condition.notes: LE=(ΔG)/N, ΔG=−RTlnKi, RT=0.6, N non-hydrogen atoms
metric: FKBP52 ligand efficiency (LE)
Form: value (number only, do not type unit).

compound: O=C1NCC2CCCC1N2S(=O)(=O)c1ccc2[nH]c(=O)sc2c1 (centres unmarked)
FKBP52 ligand efficiency (LE): 0.26

compound: COc1ccc(OCCN2CCC3CCCC(C2=O)N3S(=O)(=O)c2cc(Cl)cc(Cl)c2)cc1OC (centres unmarked)
FKBP52 ligand efficiency (LE): 0.23

compound: COc1ccc(OCCN2CC3CCCC(C2=O)N3S(=O)(=O)c2cc(Cl)cc(Cl)c2)cc1OC (centres unmarked)
FKBP52 ligand efficiency (LE): 0.20

compound: COc1ccc(OCCN2CC3CCCC(C2=O)N3C(=O)C(=O)c2cc(OC)c(OC)c(OC)c2)cc1OC (centres unmarked) [Compound 4a, reference compound]
FKBP52 ligand efficiency (LE): 0.15

compound: COc1ccc(OCCN2CCC3CCCC(C2=O)N3S(=O)(=O)c2cc(Cl)c(O)c(Cl)c2)cc1OC (centres unmarked)
FKBP52 ligand efficiency (LE): 0.21

Lookup: Record lookup: for FKBP52 (Homo sapiens, UniProt Q02790), what FKBP52 ligand efficiency (LE) belongs to COc1ccc(OCCN2CCC3CCCC(C2=O)N3S(=O)(=O)c2ccc3ncsc3c2)cc1OC (centres unmarked) ?
Found: 0.21

Lookup: # query: FKBP52 ligand efficiency (LE) | item O=C1NCCC2CCCC1N2S(=O)(=O)c1ccc2[nH]c(=O)sc2c1 (centres unmarked) | system: FKBP52 (Homo sapiens, UniProt Q02790)
Found: 0.27

Lookup: Request: FKBP52 ligand efficiency (LE), test system FKBP52 (Homo sapiens, UniProt Q02790), entry COc1ccc(OCCN2CCC3CCCC(C2=O)N3S(=O)(=O)c2ccc3[nH]c(=O)sc3c2)cc1OC (centres unmarked)
Found: 0.22
